The reported measurements were obtained from patent US8772323B2.

# STUDY SYSTEM: human GPR119 (Homo sapiens (Human))
# PROCEDURE DETAILS: AlphaScreen cAMP assay in Min-6/hGPR119 cells (GPR119 activation, intracellular cAMP)
# MEASUREMENT SETUP: MIN6 cells stably transfected with human GPR119; 45 minutes' incubation at RT; AlphaScreen cAMP Assay Kit
ASSAY ENDPOINT: EC50 (µM)

A: CCC1CC(=O)NN=C1c1ccc2nc(-c3ccc(OCCN4CCCCC4)cc3)oc2c1 (centres unmarked)
B: CC1OC(=O)NN=C1c1ccc2nc(-c3ccccc3)oc2c1 (centres unmarked)
Exam item: Lower EC50: A or B ? Indicate your choice by writing its label.
Marked response: B

1: CCC1OC(=O)NN=C1N1CCc2nc(-c3ccccc3)oc2C1 (centres unmarked)
2: C[C@@H]1CC(c2ccc3nc(-c4ccccc4)oc3c2)=NNC1=O
Exam item: Could you kindly indicate whether 1 or 2 has the higher EC50 value? Answer by quoting the chosen item's label.
Marked response: 2

* * *

# STUDY SYSTEM: human GPR119 (Homo sapiens (Human), UniProt Q8TDV5)
# Sequence (Q8TDV5 whole entry): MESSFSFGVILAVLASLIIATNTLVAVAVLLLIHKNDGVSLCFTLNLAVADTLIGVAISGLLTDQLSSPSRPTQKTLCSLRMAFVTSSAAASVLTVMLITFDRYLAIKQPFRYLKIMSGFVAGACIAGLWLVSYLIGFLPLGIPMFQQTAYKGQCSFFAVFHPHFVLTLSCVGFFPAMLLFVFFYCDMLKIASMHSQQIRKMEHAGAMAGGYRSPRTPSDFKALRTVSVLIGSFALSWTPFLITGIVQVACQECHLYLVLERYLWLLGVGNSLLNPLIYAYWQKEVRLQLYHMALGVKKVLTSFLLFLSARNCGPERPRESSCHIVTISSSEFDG
# PROCEDURE DETAILS: AlphaScreen cAMP assay in Min-6/hGPR119 cells (GPR119 activation, intracellular cAMP)
# MEASUREMENT SETUP: MIN6 cells stably transfected with human GPR119; 45 minutes' incubation at RT; AlphaScreen cAMP Assay Kit
# Description: The compounds of formula I according to the invention are GPR119 agonists. The effect of the compounds on the activation of GPR119 and on the stimulation of intracellular cAMP concentration is determined using the AlphaScreen cAMP Assay Kit (Cat. No. #6760625R) made by PerkinElmer. MIN6 cells [Miyazaki J et al. Endocrinology. 1990 July; 127(1):126-32] were stably transfected with an expression vector for human GPR119 cDNA (Acc. No. NP_848566). […]
pEC50: −log10 of the molar value.
ASSAY ENDPOINT: pEC50

COMPOUND: CCOC(=O)N1CCN(c2nc3ccc(C4=NNC(=O)CC4C)cc3o2)CC1 (centres unmarked)
STUDY SYSTEM: human GPR119 (Homo sapiens (Human), UniProt Q8TDV5)
pEC50: 5.64

I: CCC1CC(=O)NN=C1c1ccc2nc(-c3cccc(OCCN4CCCC4)c3)oc2c1 (centres unmarked)
II: CCC1CC(=O)NN=C1c1ccc2nc(-c3ccc(OCCN(CC)CC)cc3)oc2c1 (centres unmarked)
III: CC1CC(=O)NN=C1c1ccc2nc(-c3ccc(CN)cc3)oc2c1 (centres unmarked)
IV: CCC[C@@H]1C(=O)NN=C(c2ccc3nc(-c4ccc(OCc5ccccc5)cc4)oc3c2)[C@H]1C (relative stereo)
Exam item: // sort entries: pEC50, high to low Answer format: list of labels, ordered as asked.
Marked response: IV, II, I, III
(IV: 7.28, II: 6.52, I: 5.52, III: 5.06)

* * *

# STUDY SYSTEM: human GPR119 (Homo sapiens (Human))
# PROCEDURE DETAILS: AlphaScreen cAMP assay in Min-6/hGPR119 cells (GPR119 activation, intracellular cAMP)
# Type: cell-based
# MEASUREMENT SETUP: MIN6 cells stably transfected with human GPR119; 45 minutes' incubation at RT; AlphaScreen cAMP Assay Kit
# Protocol: The compounds of formula I according to the invention are GPR119 agonists. The effect of the compounds on the activation of GPR119 and on the stimulation of intracellular cAMP concentration is determined using the AlphaScreen cAMP Assay Kit (Cat. No. #6760625R) made by PerkinElmer. MIN6 cells [Miyazaki J et al. Endocrinology. 1990 July; 127(1):126-32] were stably transfected with an expression vector for human GPR119 cDNA (Acc. No. NP_848566). […]
ASSAY ENDPOINT: EC50 (µM)

COMPOUND: CCC1CC(=O)NN=C1c1ccc2nc(-c3ccc(OCCN4C[C@@H](C)O[C@@H](C)C4)cc3)oc2c1 (some centres unmarked)
UNITS: µM
EC50: 0.054
--
COMPOUND: CCC1CC(=O)NN=C1c1ccc2nc(-c3ccc(C(C)OC)cc3)oc2c1 (centres unmarked)
UNITS: µM
EC50: 0.29
--
COMPOUND: CCC1CC(=O)NN=C1c1ccc2nc(-c3ccc(OC(F)(F)F)cc3)oc2c1 (centres unmarked)
UNITS: µM
EC50: 1.21
--
COMPOUND: CCC1OC(=O)NN=C1c1ccc2nc(-c3ccccc3)oc2c1 (stereo in doubt) [Example 80]
UNITS: µM
EC50: 0.615

1: CCC[C@H]1C(=O)NN=C(c2ccc3nc(-c4cc(C)cs4)oc3c2)[C@@H]1C (relative stereo)
2: O=C1NN=C(c2ccc3nc(-c4ccc(CN5CCOCC5)cc4)oc3c2)C2CC12 (centres unmarked)
3: CCC1CC(=O)NN=C1c1ccc2nc(-c3ccc(N(C)C)cc3)oc2c1 (centres unmarked)
Exam item: Sort low-to-high on EC50, please. Use the labels to give the ranking in the order requested.
Marked response: 3, 1, 2

* * *

# STUDY SYSTEM: human GPR119 (Homo sapiens (Human), UniProt Q8TDV5)
# PROCEDURE DETAILS: AlphaScreen cAMP assay in Min-6/hGPR119 cells (GPR119 activation, intracellular cAMP)
# MEASUREMENT SETUP: MIN6 cells stably transfected with human GPR119; 45 minutes' incubation at RT; AlphaScreen cAMP Assay Kit
ASSAY ENDPOINT: EC50 (nM)

Answered examples (4):
COMPOUND: C[C@@H]1CC(=O)NN=C1c1ccc2nc(-c3ccccc3)oc2c1
EC50, nM: 82
//
COMPOUND: CCC1CC(=O)NN=C1c1ccc2nc(-c3cccc(OCc4ccccn4)c3)oc2c1 (centres unmarked)
EC50, nM: 426
//
COMPOUND: O=C1NN=C([C@H]2CCc3nc(-c4ccccc4)oc3C2)[C@@H]2C[C@H]12
EC50, nM: 300
//
COMPOUND: CCC[C@@H]1C(=O)NN=C(c2ccc3nc(-c4ccc(OCCCN5CCCCC5)cc4)oc3c2)[C@H]1C (relative stereo)
EC50, nM: 755

I: CCC1CC(=O)NN=C1c1ccc2nc(-c3ccc(OCc4cccnc4)cc3)oc2c1 (centres unmarked)
II: O=c1ccc(-c2ccc3nc(-c4ccccc4)oc3c2)n[nH]1
III: CCC1CC(=O)NN=C1c1ccc2nc(-c3ccc(OCCN4CCCCCC4)cc3)oc2c1 (centres unmarked)
IV: CCC1CC(=O)NN=C1c1ccc2nc(-c3ccc(OC[C@H]4CCCN4)cc3)oc2c1 (some centres unmarked)
Exam item: Order by EC50, ascending. Output spec: labels arranged per the requested ranking.
Marked response: III, II, I, IV

* * *

# STUDY SYSTEM: UniProt Q8TDV5
# PROCEDURE DETAILS: AlphaScreen cAMP assay in Min-6/hGPR119 cells (GPR119 activation, intracellular cAMP)
# MEASUREMENT SETUP: MIN6 cells stably transfected with human GPR119; 45 minutes' incubation at RT; AlphaScreen cAMP Assay Kit
ASSAY ENDPOINT: EC50 (nM)

Known EC50 results, listed for orientation:
COMPOUND: CCC1CC(=O)NN=C1c1ccc2nc(-c3ccc(OC(C)(C)CN4CCOCC4)cc3)oc2c1 (centres unmarked)
EC50 / nM: 120
--
COMPOUND: CCC1CC(=O)NN=C1c1ccc2nc(-c3ccc(OCCN4CCN(C(C)CC)CC4)cc3)oc2c1 (centres unmarked)
EC50 / nM: 621
--
COMPOUND: CC(C)C1CC(=O)NN=C1c1ccc2nc(-c3ccccc3)oc2c1 (centres unmarked)
EC50 / nM: 869
--
COMPOUND: CCC1CC(=O)NN=C1c1ccc2nc(-c3ccc(OCCC4CCCCC4)cc3)oc2c1 (centres unmarked)
EC50 / nM: 170
--
COMPOUND: CCC1CC(c2ccc3nc(-c4cccs4)oc3c2)=NNC1=O (centres unmarked)
EC50 / nM: 7330
--
COMPOUND: CC1CC(=O)NN=C1c1ccc2nc(N3CCOCC3)oc2c1 (centres unmarked)
EC50 / nM: 3450
--
COMPOUND: C[C@@H]1C(c2ccc3nc(-c4ccccc4)oc3c2)=NNC(=O)[C@@H]1C
EC50 / nM: 2370
--
COMPOUND: CCC[C@H]1C(=O)NN=C(c2ccc3nc(-c4ccc(OC(C)C)cc4)oc3c2)[C@@H]1C
EC50 / nM: 24
--
COMPOUND: CC1CC(=O)NN=C1c1ccc2nc(-c3ccccc3Cl)oc2c1 (centres unmarked)
EC50 / nM: 415
--
COMPOUND: O=C1CC(C2CC2)C(N2CCc3nc(-c4ccccc4)oc3C2)=NN1 (centres unmarked)
EC50 / nM: 1310

1: CCC1CC(=O)NN=C1c1ccc2nc(-c3ccc(OC(C)(C)CN4CCCC4)cc3)oc2c1 (centres unmarked)
2: CCC1CC(=O)NN=C1c1ccc2nc(-c3ccc(OCC(=O)N4CCCCC4)cc3)oc2c1 (centres unmarked)
Exam item: Lab log: flag the item ( 1 or 2 ) with the smaller EC50 figure. Could you answer with the label of the item you picked?
Marked response: 2
